Target: GST-Bcl-2 (Homo sapiens, UniProt P10415)
Sequence (P10415 whole entry): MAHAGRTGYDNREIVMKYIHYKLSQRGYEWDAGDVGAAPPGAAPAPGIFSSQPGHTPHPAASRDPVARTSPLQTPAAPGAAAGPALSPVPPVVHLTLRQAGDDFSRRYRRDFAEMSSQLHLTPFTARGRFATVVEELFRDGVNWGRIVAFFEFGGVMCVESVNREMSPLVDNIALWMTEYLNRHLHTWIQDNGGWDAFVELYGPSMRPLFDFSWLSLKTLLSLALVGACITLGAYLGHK
Test: TR-FRET binding assay, GST-Bcl-2 with F-Bak peptide probe
Details: TR-FRET Binding Affinity, GST-Bcl-2, F-Bak peptide probe
reported-endpoint: log10 of Ki (log10 of the value in nM)

[
  {
    "compound": "CN(C)CCOc1ccc(-c2ccc(Cl)cc2)c(CN2CCN(c3ccc(C(=O)NS(=O)(=O)c4ccc(NCCCN5CCCC5)c([N+](=O)[O-])c4)c(Oc4ccc5[nH]ccc5c4)c3)CC2)c1",
    "log10 of Ki": -2.10
  },
  {
    "compound": "CN1CC(Nc2ccc(S(=O)(=O)NC(=O)c3ccc(N4CCN(CC5=C(c6ccc(Cl)cc6)CC(C)(C)CC5)CC4)cc3Oc3ccc4[nH]ccc4c3)cc2[N+](=O)[O-])CCC1=O (centres unmarked)",
    "log10 of Ki": -0.79
  },
  {
    "compound": "CC1(C)CCC(CN2CCN(c3ccc(C(=O)NS(=O)(=O)c4ccc(NCCCN5CCOCC5)c([N+](=O)[O-])c4)c(Oc4cccc5[nH]ccc45)c3)CC2)=C(c2ccc(Cl)cc2)C1",
    "log10 of Ki": -0.71
  },
  {
    "compound": "CC1(C)CCC(CN2CCN(c3ccc(C(=O)NS(=O)(=O)c4ccc(NCC56CC7CC(C5)C(O)[C@H](C7)C6)c([N+](=O)[O-])c4)c(Oc4ccc5[nH]ccc5c4)c3)CC2)=C(c2ccc(Cl)cc2)C1 (some centres unmarked)",
    "log10 of Ki": -0.16
  },
  {
    "compound": "CN(C)CCCNc1ccc(S(=O)(=O)NC(=O)c2ccc(N3CCN(Cc4ccccc4-c4ccc(Cl)cc4)CC3)cc2Oc2ccccc2)cc1[N+](=O)[O-]",
    "log10 of Ki": -0.88
  }
]

====

Listed next: entries and their corresponding Binding selectivity ratio (Bcl-XL Ki/Bcl-2 Ki).
Target: GST-Bcl-2 (Homo sapiens, UniProt P10415)
Assay: TR-FRET binding assay, GST-Bcl-2 with F-Bak peptide probe
Conditions: ratio of TR-FRET Ki values, Bcl-XL over Bcl-2
Procedure: Tb-anti-GST antibody was purchased from Invitrogen (Catalog No. PV4216). […] The samples were then mixed on a shaker for 1 minute and incubated for an additional 3 hours at room temperature. […] Fluorescence was measured on the ENVISION plate reader (Perkin Elmer) using a 340/35 nm excitation filter and 520/525 (F-Bak peptide) and 495/510 nm (Tb-labeled […] antibody) emission filters. […]
reported-endpoint: Binding selectivity ratio (Bcl-XL Ki/Bcl-2 Ki)

[
  {
    "molecule": "CC1(C)CCC(CN2CCN(c3ccc(C(=O)NS(=O)(=O)c4cnc(OCC5(F)CCN(CC#N)CC5)c(Cl)c4)c(Oc4cccc5[nH]ncc45)c3)CC2)=C(c2ccc(Cl)cc2)C1 [Example 419]",
    "bound-type": "=",
    "endpoint-result": 1070.8
  },
  {
    "molecule": "CC1(C)CCC(CN2CCN(c3ccc(C(=O)NS(=O)(=O)c4ccc(NC5CCN(C6CCOCC6)CC5)c([N+](=O)[O-])c4)c(Oc4cccc5[nH]ncc45)c3)CC2)=C(c2ccc(Cl)cc2)C1 [Example 401]",
    "bound-type": ">",
    "endpoint-result": 162.1
  },
  {
    "molecule": "CC1(C)CCC(CN2CCN(c3ccc(C(=O)NS(=O)(=O)c4ccc(N[C@H]5CC[C@H](N6CCOCC6)CC5)c([N+](=O)[O-])c4)c(Oc4cccc5[nH]ncc45)c3)CC2)=C(c2ccc(Cl)cc2)C1 [Example 402]",
    "bound-type": "=",
    "endpoint-result": 137.4
  },
  {
    "molecule": "CC1(C)CCC(CN2CCN(c3ccc(C(=O)NS(=O)(=O)c4ccc(NC5CCN(C6CCOCC6)CC5)c([N+](=O)[O-])c4)c(Nc4cccnc4)c3)CC2)=C(c2ccc(Cl)cc2)C1 [Example 397]",
    "bound-type": ">",
    "endpoint-result": 28730.6
  },
  {
    "molecule": "CC1(C)CCC(CN2CCN(c3ccc(C(=O)NS(=O)(=O)c4ccc(NCC5CCOCC5)c([N+](=O)[O-])c4)c(Oc4cccc5c4CCNC5)c3)CC2)=C(c2ccc(Cl)cc2)C1 [Example 399]",
    "bound-type": ">",
    "endpoint-result": 225764.5
  },
  {
    "molecule": "CC1(C)CCC(CN2CCN(c3ccc(C(=O)NS(=O)(=O)c4cnc(NCC5(F)CCOCC5)c(Cl)c4)c(Oc4cccc5[nH]ncc45)c3)CC2)=C(c2ccc(Cl)cc2)C1 [Example 413]",
    "bound-type": "=",
    "endpoint-result": 803.8
  },
  {
    "molecule": "CC1(C)CCC(CN2CCN(c3ccc(C(=O)NS(=O)(=O)c4cnc(O[C@@H]5CCN(CC(F)F)C5)c(Cl)c4)c(Oc4cccc5[nH]ncc45)c3)CC2)=C(c2ccc(Cl)cc2)C1 [Example 422]",
    "bound-type": "=",
    "endpoint-result": 4073.4
  },
  {
    "molecule": "CN(C)CC(=O)N1CCO[C@H](COc2ncc(S(=O)(=O)NC(=O)c3ccc(N4CCN(CC5=C(c6ccc(Cl)cc6)CC(C)(C)CC5)CC4)cc3Oc3cccc4[nH]ncc34)cc2Cl)C1 [Example 425]",
    "bound-type": "=",
    "endpoint-result": 1282.2
  },
  {
    "molecule": "CC1(C)CCC(CN2CCN(c3ccc(C(=O)NS(=O)(=O)c4cnc(OCC5(F)CCOCC5)c(Cl)c4)c(Oc4cccc5[nH]ncc45)c3)CC2)=C(c2ccc(Cl)cc2)C1 [Example 404]",
    "bound-type": "=",
    "endpoint-result": 2423.5
  },
  {
    "molecule": "CC1(C)CCC(CN2CCN(c3ccc(C(=O)NS(=O)(=O)c4ccc(NCC56CC7CC(C5)C(O)C(C7)C6)c([N+](=O)[O-])c4)c(Oc4ccc5[nH]ccc5c4)c3)CC2)=C(c2ccc(Cl)cc2)C1 (stereo not shown) [Example 322]",
    "bound-type": ">",
    "endpoint-result": 3591.4
  }
]

====

Target: GST-Bcl-XL (Homo sapiens, UniProt Q07817)
Sequence (Q07817 whole entry): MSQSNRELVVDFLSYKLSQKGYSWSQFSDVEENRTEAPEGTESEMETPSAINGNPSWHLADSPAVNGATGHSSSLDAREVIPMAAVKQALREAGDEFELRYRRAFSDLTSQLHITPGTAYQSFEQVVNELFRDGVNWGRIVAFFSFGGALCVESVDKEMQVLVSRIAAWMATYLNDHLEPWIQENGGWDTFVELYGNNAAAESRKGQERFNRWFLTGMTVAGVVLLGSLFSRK
Test: TR-FRET binding assay, GST-Bcl-XL with F-Bak peptide probe
Conditions: TR-FRET Binding Affinity, GST-Bcl-XL, F-Bak peptide probe

[
  {
    "smiles-code": "CC1(C)CCC(CN2CCN(c3ccc(C(=O)NS(=O)(=O)c4ccc(NCCN5CCNC(=O)C5)c([N+](=O)[O-])c4)c(Oc4ccc5[nH]ccc5c4)c3)CC2)=C(c2ccc(Cl)cc2)C1",
    "system-tested": "GST-Bcl-XL (Homo sapiens, UniProt Q07817)",
    "bound-type": "=",
    "Ki [nM]": 181
  },
  {
    "smiles-code": "CC1(C)CCC(CN2CCN(c3ccc(C(=O)NS(=O)(=O)c4ccc(NCC5CCOCC5)c([N+](=O)[O-])c4)c(Oc4cccc5[nH]ncc45)c3)CC2)=C(c2ccc(Cl)cc2)C1",
    "system-tested": "GST-Bcl-XL (Homo sapiens, UniProt Q07817)",
    "bound-type": "=",
    "Ki [nM]": 36.4
  },
  {
    "smiles-code": "CC(C)C[C@@H](CO)Nc1ccc(S(=O)(=O)NC(=O)c2ccc(N3CCN(CC4=C(c5ccc(Cl)cc5)CC(C)(C)CC4)CC3)cc2Oc2ccc3[nH]ccc3c2)cc1[N+](=O)[O-]",
    "system-tested": "GST-Bcl-XL (Homo sapiens, UniProt Q07817)",
    "bound-type": ">",
    "Ki [nM]": 660
  },
  {
    "smiles-code": "CC1(C)CCC(CN2CCN(c3ccc(C(=O)NS(=O)(=O)c4ccc(NCC5CCOCC5)c(C#N)c4)c(Oc4ccc5[nH]ccc5c4)c3)CC2)=C(c2ccc(Cl)cc2)C1",
    "system-tested": "GST-Bcl-XL (Homo sapiens, UniProt Q07817)",
    "bound-type": ">",
    "Ki [nM]": 660
  },
  {
    "smiles-code": "CC1(C)CCC(CN2CCN(c3ccc(C(=O)NS(=O)(=O)c4ccc(NC5CCN(CC(F)(F)F)CC5)c([N+](=O)[O-])c4)c(Oc4cccc5[nH]ccc45)c3)CC2)=C(c2ccc(Cl)cc2)C1",
    "system-tested": "GST-Bcl-XL (Homo sapiens, UniProt Q07817)",
    "bound-type": "=",
    "Ki [nM]": 59.6
  },
  {
    "smiles-code": "CC1(C)CCC(CN2CCN(c3ccc(C(=O)NS(=O)(=O)c4ccc(NCCCN5CCCC5)c([N+](=O)[O-])c4)c(Oc4cccc5[nH]ccc45)c3)CC2)=C(c2cccc(C(F)(F)F)c2)C1",
    "system-tested": "GST-Bcl-XL (Homo sapiens, UniProt Q07817)",
    "bound-type": ">",
    "Ki [nM]": 660
  },
  {
    "smiles-code": "O=C(NS(=O)(=O)c1ccc(NCCCN2CCCC2)c([N+](=O)[O-])c1)c1ccc(N2CCN(CC3=C(c4ccc(Cl)cc4)CCCCCC3)CC2)cc1Oc1cccc2[nH]ccc12",
    "system-tested": "GST-Bcl-XL (Homo sapiens, UniProt Q07817)",
    "bound-type": "=",
    "Ki [nM]": 102
  },
  {
    "smiles-code": "CN1CCC(Nc2ccc(S(=O)(=O)NC(=O)c3ccc(N4CCN(CC5=C(c6ccc(Cl)cc6)CC(C)(C)CC5)CC4)cc3Oc3cccc4[nH]cnc34)cc2[N+](=O)[O-])CC1",
    "system-tested": "GST-Bcl-XL (Homo sapiens, UniProt Q07817)",
    "bound-type": "=",
    "Ki [nM]": 1.57
  },
  {
    "smiles-code": "COCCNc1ccc(S(=O)(=O)NC(=O)c2ccc(N3CCN(CC4=C(c5ccc(Cl)cc5)CC(C)(C)CC4)CC3)cc2Oc2cccc3[nH]ccc23)cc1S(=O)(=O)C(F)(F)F",
    "system-tested": "GST-Bcl-XL (Homo sapiens, UniProt Q07817)",
    "bound-type": ">",
    "Ki [nM]": 660
  },
  {
    "smiles-code": "CN(C)CC(=O)N1CCO[C@H](COc2ncc(S(=O)(=O)NC(=O)c3ccc(N4CCN(CC5=C(c6ccc(Cl)cc6)CC(C)(C)CC5)CC4)cc3Oc3cccc4[nH]ncc34)cc2Cl)C1",
    "system-tested": "GST-Bcl-XL (Homo sapiens, UniProt Q07817)",
    "bound-type": "=",
    "Ki [nM]": 3.99
  }
]
